Below: a set of entries, each annotated with reported pKd.
biological target: T1, recombinant human CD3 epsilon/delta heterodimer (human, UniProt P07766 23-126; P04234 22-105); test: Octet BLI, mAb on FAB2G sensor, hCD3 E/D 200-50 nM; R^2 0.96
T1 construct: Recombinant protein in solution (200-50 nM) in the Octet assay; also called hCD3 E/D; human CD3E/D
T1 sequence (P07766 23-126, stated change not applied, chain 1 of 2): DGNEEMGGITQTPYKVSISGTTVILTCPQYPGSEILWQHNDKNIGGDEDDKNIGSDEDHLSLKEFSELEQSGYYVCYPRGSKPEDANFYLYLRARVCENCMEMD
T1 sequence (P04234 22-105, stated change not applied, chain 2 of 2): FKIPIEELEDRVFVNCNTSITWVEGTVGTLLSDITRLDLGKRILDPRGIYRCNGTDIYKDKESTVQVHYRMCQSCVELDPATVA
pKd: −log10 of the molar value.

binder | pKd
ABL-CD3-22 (antibody, V domains shown, Chimeric hybridoma mAb: human V, CH1, upper hinge; mouse middle hinge, CH2, CH3) VH: EVQLVESGGGLVQPGGSLRLSCAASGFTFSSYSMNWVRQAPGKGLEWVSYISSSSSTIYYADSVKGRFTISRDNAKNSLYLQMNSLRDEDTAVYYCARDGPVDYGMDVWGQGTTVTVSS VL: SYELTQPPSVSVSPGQTARITCSGDALPKQYTYWCQQKPGQAPVLVIYKDSERPSGIPERFSGSSSGTTVTLTISGVQAEDEADYYCQSADSSGTYRVFGGGTKLTVL | 7.31
ABL-CD3-33 (antibody, V domains shown, Chimeric hybridoma mAb: human V, CH1, upper hinge; mouse middle hinge, CH2, CH3) VH: EVQLVESGGGLVKPGGSLRLSCAASGFTFSSYSMNWVRQAPGKGLEWVSSISRSSSYIYYADSVKGRFTISRDNAKNSLYLQMNSLRAEDTAVYYCAREPPTLGMDYWGQGTLVTVSS VL: NFMLTQPHSVSESPGKTVTISCTRSSGSIASNYVQWYQQRPGSSPTTVIYEDNQRPSGVPDRFSGSIDSSSNSASLTISGLKTEDEADYYCQSYYNSNRVFGGGTKLTVL | 7.25
ABL-CD3-13 (antibody, V domains shown, Chimeric hybridoma mAb: human V, CH1, upper hinge; mouse middle hinge, CH2, CH3) VH: EVQLVESGGGLVQPGGSLRLSCAASGFTFSNYWMSWVRQAPGKGLEWVANIKEDGSEKYYVDSVKGRFTISRDNAKNSLYLQMNSLTAEDTSVYYCARERRTGYFDYWGQGTLVTVSS VL: DIQMTQSPSTLSASVGDRVTITCRASQSISNWLAWYQQKPGKAPNLLIYKASSLESGVPSRFSGSGSGTEFTLTISSLQPDDFANYYCQQYKSYSWTFGQGTKVEIK | 7.63
ABL-CD3-27 (antibody, V domains shown, Chimeric hybridoma mAb: human V, CH1, upper hinge; mouse middle hinge, CH2, CH3) VH: QVQLVQSGAEVKKPGASLKVSCKASGYTFTSYYMHWVRQAPGQGLEWMGIINPSNGNTISAQKFQGRVTMTRDTSTSTVYMEMSSLRSEDTAVYYCVRCWGYYVMDVWGQGTTVTVSS VL: QTVVTQEPSFSVSPGGTVTLTCGLNSGSVSTSYYPSWYQQTPGQTPRTLIYSTNTRSSGVPDRFSGSILGNKAALTITGAQADDESDYYCVLYMGSGIWVFGGGTKLTVL | 8.64
